Assay: Ratio of IC50 morphine and antagonist binding to opioid receptor
Ratio below 3 gives rule not met; Ratio at or above it gives rule met.

Answered examples (6):
Oc1ccc2c3c1O[C@H]1c4[nH]ccc4C[C@@]4(O)[C@@H](C2)N(CC2CC2)CC[C@]314    rule met
Oc1ccc2c3c1O[C@H]1c4[nH]c5c(c4C[C@@]4(O)[C@@H](C2)N(CC2CC2)CC[C@]314)C[C@@]1(O)[C@H]2Cc3ccc(O)c4c3[C@@]1(CCN2CC1CC1)[C@H]5O4    rule not met
CC(=O)Oc1ccc2c3c1O[C@H]1c4[nH]c5c(c4C[C@@]4(OC(C)=O)[C@@H](C2)N(CC2CC2)CC[C@]314)C[C@@]1(OC(C)=O)[C@H]2Cc3ccc(OC(C)=O)c4c3[C@@]1(CCN2CC1CC1)[C@H]5O4    rule not met
CN1CC[C@]23c4c5ccc(O)c4O[C@H]2c2[nH]c4c(c2C[C@@]3(O)[C@H]1C5)C[C@@]1(O)[C@H]2Cc3ccc(O)c5c3[C@@]1(CCN2C)[C@H]4O5    rule not met
Cn1c2c(c3c1[C@@H]1Oc4c(O)ccc5c4[C@@]14CCN(CC1CC1)[C@H](C5)[C@]4(O)C3)C[C@@]1(O)[C@H]3Cc4ccc(O)c5c4[C@@]1(CCN3CC1CC1)[C@H]2O5    rule not met
COc1ccc2c3c1O[C@H]1c4[nH]c5c(c4C[C@@]4(O)[C@@H](C2)N(CC2CC2)CC[C@]314)C[C@@]1(O)[C@H]2Cc3ccc(O)c4c3[C@@]1(CCN2CC1CC1)[C@H]5O4    rule met

State whether the measured Ratio reaches 3, counting equality as reaching it, for COc1ccc2c3c1O[C@H]1c4[nH]c5c(c4C[C@@]4(O)[C@@H](C2)N(CC2CC2)CC[C@]314)C[C@@]1(O)[C@H]2Cc3ccc(OC)c4c3[C@@]1(CCN2CC1CC1)[C@H]5O4
rule not met

State whether the measured Ratio reaches 3, counting equality as reaching it, for CN1CC[C@]23c4c5ccc(O)c4O[C@H]2c2[nH]c4c(c2C[C@H]3[C@H]1C5)C[C@H]1[C@H]2Cc3ccc(O)c5c3[C@@]1(CCN2C)[C@H]4O5
rule not met

State whether the measured Ratio reaches 3, counting equality as reaching it, for CC(=O)O[C@@]12Cc3c([nH]c4c3C[C@@]3(OC(C)=O)[C@H]5Cc6ccc(O)c7c6[C@@]3(CCN5CC3CC3)[C@H]4O7)[C@@H]3Oc4c(O)ccc5c4[C@@]31CCN(CC1CC1)[C@@H]2C5
rule met

State whether the measured Ratio reaches 3, counting equality as reaching it, for COc1ccc2c3c1O[C@H]1c4[nH]c5c(c4C[C@H]4[C@@H](C2)N(C)CC[C@]314)C[C@H]1[C@H]2Cc3ccc(OC)c4c3[C@@]1(CCN2C)[C@H]5O4
rule not met

###

Molecular target: Opioid receptor (mu and kappa) (Cavia porcellus) (UniProt P41144+P97266)
Sequence (P41144 whole entry, looked up): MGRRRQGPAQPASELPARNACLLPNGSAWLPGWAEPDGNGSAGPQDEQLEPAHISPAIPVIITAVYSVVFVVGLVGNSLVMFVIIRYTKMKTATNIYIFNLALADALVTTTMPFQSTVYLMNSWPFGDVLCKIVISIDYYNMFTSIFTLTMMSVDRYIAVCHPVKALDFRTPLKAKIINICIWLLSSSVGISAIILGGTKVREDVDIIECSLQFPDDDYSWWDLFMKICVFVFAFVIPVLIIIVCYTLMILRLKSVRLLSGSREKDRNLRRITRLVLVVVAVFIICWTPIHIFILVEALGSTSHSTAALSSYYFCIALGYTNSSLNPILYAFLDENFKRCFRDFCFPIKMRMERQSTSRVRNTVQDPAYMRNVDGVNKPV
Sequence (P97266 whole entry, looked up): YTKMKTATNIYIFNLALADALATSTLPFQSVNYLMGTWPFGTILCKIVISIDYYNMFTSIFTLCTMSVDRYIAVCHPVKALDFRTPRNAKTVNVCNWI
Assay: Ratio of antagonistic activity for mu and kappa receptors
Type: functional
quantity-kind: Selectivity ratio
Lab note: record just the number, no unit beside it.

// worked examples, Selectivity ratio included
CC(=O)O[C@@]12Cc3c([nH]c4c3C[C@@]3(OC(C)=O)[C@H]5Cc6ccc(O)c7c6[C@@]3(CCN5CC3CC3)[C@H]4O7)[C@@H]3Oc4c(O)ccc5c4[C@@]31CCN(CC1CC1)[C@@H]2C5    111
Oc1ccc2c3c1O[C@H]1c4[nH]ccc4C[C@@]4(O)[C@@H](C2)N(CC2CC2)CC[C@]314    0.3
COc1ccc2c3c1O[C@H]1c4[nH]c5c(c4C[C@@]4(O)[C@@H](C2)N(CC2CC2)CC[C@]314)C[C@@]1(O)[C@H]2Cc3ccc(O)c4c3[C@@]1(CCN2CC1CC1)[C@H]5O4    29
Oc1ccc2c3c1O[C@H]1c4[nH]c5c(c4C[C@@]4(O)[C@@H](C2)N(CC2CC2)CC[C@]314)C[C@@]1(O)[C@H]2Cc3ccc(O)c4c3[C@@]1(CCN2CC1CC1)[C@H]5O4    32

// Input: Cn1c2c(c3c1[C@@H]1Oc4c(O)ccc5c4[C@@]14CCN(CC1CC1)[C@H](C5)[C@]4(O)C3)C[C@@]1(O)[C@H]3Cc4ccc(O)c5c4[C@@]1(CCN3CC1CC1)[C@H]2O5 . Output its Selectivity ratio only.
79

###

Target: Delta-type opioid receptor (Mus musculus, UniProt P32300)
Sequence (P32300 whole entry): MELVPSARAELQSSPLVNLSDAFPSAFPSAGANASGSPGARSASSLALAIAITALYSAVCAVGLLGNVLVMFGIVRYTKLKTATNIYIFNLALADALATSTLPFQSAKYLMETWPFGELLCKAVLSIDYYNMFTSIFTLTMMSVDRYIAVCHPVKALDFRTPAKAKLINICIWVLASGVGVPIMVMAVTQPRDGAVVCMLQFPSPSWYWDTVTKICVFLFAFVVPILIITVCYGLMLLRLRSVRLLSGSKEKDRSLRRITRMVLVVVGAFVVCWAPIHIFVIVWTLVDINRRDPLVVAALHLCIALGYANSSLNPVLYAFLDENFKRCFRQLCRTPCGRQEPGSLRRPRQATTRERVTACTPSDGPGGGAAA
Experiment: Agonistic activity in mouse vas deferens
quantity-kind: pIC50
// pIC50: -log10(molar conc.)

COc1ccc2c3c1O[C@H]1c4[nH]c5c(c4C[C@H]4[C@@H](C2)N(C)CC[C@]314)C[C@H]1[C@H]2Cc3ccc(OC)c4c3[C@@]1(CCN2C)[C@H]5O4    6.00
CN1CC[C@]23c4c5ccc(O)c4O[C@H]2c2[nH]c4c(c2C[C@H]3[C@H]1C5)C[C@H]1[C@H]2Cc3ccc(O)c5c3[C@@]1(CCN2C)[C@H]4O5    7.28

With those in mind, consider the next compound.
// Input: CN1CC[C@]23c4c5ccc(O)c4O[C@H]2c2[nH]c4c(c2C[C@@]3(O)[C@H]1C5)C[C@@]1(O)[C@H]2Cc3ccc(O)c5c3[C@@]1(CCN2C)[C@H]4O5 . Output its pIC50 only.
6.77

###

# reported Ke; entries follow
Molecular target: Kappa-type opioid receptor (Cavia porcellus) (UniProt P41144)
Sequence (P41144 whole entry): as the sequence (P41144 whole entry, looked up) above
Assay: Antagonistic activity for Opioid receptor kappa 1 of guinea pig ileal longitudinal muscle at 100 nM
Assay type: functional

// worked examples, Ke included
Oc1ccc2c3c1O[C@H]1c4[nH]ccc4C[C@@]4(O)[C@@H](C2)N(CC2CC2)CC[C@]314    2.1 nM
Cn1c2c(c3c1[C@@H]1Oc4c(O)ccc5c4[C@@]14CCN(CC1CC1)[C@H](C5)[C@]4(O)C3)C[C@@]1(O)[C@H]3Cc4ccc(O)c5c4[C@@]1(CCN3CC1CC1)[C@H]2O5    0.14 nM
Oc1ccc2c3c1O[C@H]1c4[nH]c5c(c4C[C@@]4(O)[C@@H](C2)N(CC2CC2)CC[C@]314)C[C@@]1(O)[C@H]2Cc3ccc(O)c4c3[C@@]1(CCN2CC1CC1)[C@H]5O4    0.41 nM

// Input: CC(=O)O[C@@]12Cc3c([nH]c4c3C[C@@]3(OC(C)=O)[C@H]5Cc6ccc(O)c7c6[C@@]3(CCN5CC3CC3)[C@H]4O7)[C@@H]3Oc4c(O)ccc5c4[C@@]31CCN(CC1CC1)[C@@H]2C5 . Output its Ke only.
0.38 nM

###

Molecular target: Opioid receptor (mu and kappa) (Cavia porcellus) (UniProt P41144+P97266)
Assay: Ratio of IC50 ethylketazocine and antagonist binding to opioid receptor
Assay type: protein assay
# reported Ratio; entries follow
Lab note: record just the number, no unit beside it.

Cn1c2c(c3c1[C@@H]1Oc4c(O)ccc5c4[C@@]14CCN(CC1CC1)[C@H](C5)[C@]4(O)C3)C[C@@]1(O)[C@H]3Cc4ccc(O)c5c4[C@@]1(CCN3CC1CC1)[C@H]2O5    148
CC(=O)O[C@@]12Cc3c([nH]c4c3C[C@@]3(OC(C)=O)[C@H]5Cc6ccc(O)c7c6[C@@]3(CCN5CC3CC3)[C@H]4O7)[C@@H]3Oc4c(O)ccc5c4[C@@]31CCN(CC1CC1)[C@@H]2C5    261
CN1CC[C@]23c4c5ccc(O)c4O[C@H]2c2[nH]c4c(c2C[C@@]3(O)[C@H]1C5)C[C@@]1(O)[C@H]2Cc3ccc(O)c5c3[C@@]1(CCN2C)[C@H]4O5    1.6
Oc1ccc2c3c1O[C@H]1c4[nH]c5c(c4C[C@@]4(O)[C@@H](C2)N(CC2CC2)CC[C@]314)C[C@@]1(O)[C@H]2Cc3ccc(O)c4c3[C@@]1(CCN2CC1CC1)[C@H]5O4    49.1

With those in mind, consider the next compound.
// Input: Oc1ccc2c3c1O[C@H]1c4[nH]ccc4C[C@@]4(O)[C@@H](C2)N(CC2CC2)CC[C@]314 . Output its Ratio only.
49.5

###

# reported Selectivity ratio; entries follow
Experiment: Ratio of antagonistic activity for delta and kappa receptors
Assay type: functional
Lab note: record just the number, no unit beside it.

// worked examples, Selectivity ratio included
Oc1ccc2c3c1O[C@H]1c4[nH]c5c(c4C[C@@]4(O)[C@@H](C2)N(CC2CC2)CC[C@]314)C[C@@]1(O)[C@H]2Cc3ccc(O)c4c3[C@@]1(CCN2CC1CC1)[C@H]5O4    49
CC(=O)O[C@@]12Cc3c([nH]c4c3C[C@@]3(OC(C)=O)[C@H]5Cc6ccc(O)c7c6[C@@]3(CCN5CC3CC3)[C@H]4O7)[C@@H]3Oc4c(O)ccc5c4[C@@]31CCN(CC1CC1)[C@@H]2C5    32
COc1ccc2c3c1O[C@H]1c4[nH]c5c(c4C[C@@]4(O)[C@@H](C2)N(CC2CC2)CC[C@]314)C[C@@]1(O)[C@H]2Cc3ccc(O)c4c3[C@@]1(CCN2CC1CC1)[C@H]5O4    35
Oc1ccc2c3c1O[C@H]1c4[nH]ccc4C[C@@]4(O)[C@@H](C2)N(CC2CC2)CC[C@]314    1.5

// Input: Cn1c2c(c3c1[C@@H]1Oc4c(O)ccc5c4[C@@]14CCN(CC1CC1)[C@H](C5)[C@]4(O)C3)C[C@@]1(O)[C@H]3Cc4ccc(O)c5c4[C@@]1(CCN3CC1CC1)[C@H]2O5 . Output its Selectivity ratio only.
41
